# Assayed System: Nuclear receptor coactivator 3 (Homo sapiens) (UniProt Q9Y6Q9)
# Sequence (Q9Y6Q9 whole entry, looked up, the tested form may be a part): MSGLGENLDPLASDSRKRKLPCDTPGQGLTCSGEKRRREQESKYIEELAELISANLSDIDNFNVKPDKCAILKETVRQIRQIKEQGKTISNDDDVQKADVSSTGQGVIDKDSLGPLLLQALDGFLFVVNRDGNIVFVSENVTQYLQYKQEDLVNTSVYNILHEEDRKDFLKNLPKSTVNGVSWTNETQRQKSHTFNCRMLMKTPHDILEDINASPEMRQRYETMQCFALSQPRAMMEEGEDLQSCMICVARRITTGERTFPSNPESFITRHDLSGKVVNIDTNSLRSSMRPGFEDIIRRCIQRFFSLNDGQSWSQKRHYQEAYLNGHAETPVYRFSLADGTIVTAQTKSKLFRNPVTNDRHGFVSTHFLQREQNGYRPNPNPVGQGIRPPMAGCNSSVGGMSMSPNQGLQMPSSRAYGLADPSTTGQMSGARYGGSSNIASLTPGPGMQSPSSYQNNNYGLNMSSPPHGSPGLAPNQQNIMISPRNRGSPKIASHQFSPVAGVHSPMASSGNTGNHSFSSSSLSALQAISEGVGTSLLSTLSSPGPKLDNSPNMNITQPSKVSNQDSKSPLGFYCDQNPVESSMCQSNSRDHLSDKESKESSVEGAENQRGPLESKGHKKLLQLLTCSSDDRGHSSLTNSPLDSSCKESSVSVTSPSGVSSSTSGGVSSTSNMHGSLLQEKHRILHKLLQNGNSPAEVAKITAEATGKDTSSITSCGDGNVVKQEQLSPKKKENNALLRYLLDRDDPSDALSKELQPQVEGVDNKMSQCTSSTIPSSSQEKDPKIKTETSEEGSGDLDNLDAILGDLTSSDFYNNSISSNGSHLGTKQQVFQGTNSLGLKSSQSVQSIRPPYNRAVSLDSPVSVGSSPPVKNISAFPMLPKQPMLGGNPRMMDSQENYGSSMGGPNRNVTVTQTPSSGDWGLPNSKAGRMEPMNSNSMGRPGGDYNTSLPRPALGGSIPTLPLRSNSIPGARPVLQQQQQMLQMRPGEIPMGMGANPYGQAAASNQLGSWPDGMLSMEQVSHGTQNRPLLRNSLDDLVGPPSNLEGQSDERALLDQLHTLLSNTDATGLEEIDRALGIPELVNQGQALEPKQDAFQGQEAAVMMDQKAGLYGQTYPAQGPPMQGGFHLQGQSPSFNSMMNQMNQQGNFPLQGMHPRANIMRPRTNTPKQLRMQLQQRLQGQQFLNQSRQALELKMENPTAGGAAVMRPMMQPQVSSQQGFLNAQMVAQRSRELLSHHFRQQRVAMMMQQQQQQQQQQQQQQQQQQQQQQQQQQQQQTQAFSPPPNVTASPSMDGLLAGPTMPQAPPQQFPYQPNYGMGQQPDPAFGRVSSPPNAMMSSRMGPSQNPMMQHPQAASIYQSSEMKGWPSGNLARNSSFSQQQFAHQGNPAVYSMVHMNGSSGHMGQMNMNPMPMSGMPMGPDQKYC
# Experiment Notes: SRC3 coactivator transcriptional activity inhibitors, primary screen, cell-based, luminescence (AID 588352);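 also: 0% = DMSO-treated cells and 100% = gossypol-treated cells at 36 µM; higher means less SRC3-driven luciferase light from the GAL4 reporter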
# Assay Context: HEK293 GAL4-SRC3 luciferase reporter, at 3.6 µM, hits give high values
The campaign covered roughly 360,000 compounds. About 620 (0.17%) were called active. What follows is part of a selection rich in actives, with near analogues and random picks from the rest.
# maps each entry to its inhibition

Molecule | inhibition / %
CC(C)(C)c1ccc(Oc2ccc(N)cc2)cc1 | 82.3
COc1cccc2cc(C(=O)NCc3ccc(C)cc3)c(=N)oc12 | 14.3
CCc1nc2c(OCCOc3ccccc3)cccn2c1N(C)C(=O)c1cccs1 | -22.5
COc1cc(NC(=S)N2CCCC(C)C2)cc(OC)c1OC (configuration not stated) | 8.3
CC1CCCC(C)N1C(=O)COC(=O)COc1ccccc1C#N (configuration not stated) | 13.1
COC(=O)Cc1[nH]n(-c2nc3ccccc3s2)c(=O)c1C(C)=Nc1ccc(OC)cc1 | 86.7
CC(=O)NN=C(C)c1ccc(NC(=O)C2CC2)cc1 | 0.05
O=C(O)CCCn1cc(NC(=O)COc2cccc(Cl)c2)cn1 | 19.3
Clc1cccc(Cl)c1Cn1nnc(-c2cccs2)n1 | -55.9
Cc1cccc(-n2c(Cc3cc(=O)[nH]c(=O)[nH]3)nnc2SC(C)C)c1 | 1.68
CCOC(=O)CN(C)S(=O)(=O)c1ccc(-c2cc(C(=O)OC)sc2C(F)(F)F)cc1 | 9.38
O=C(CN1C(=O)c2ccccc2S1(=O)=O)N1CCc2ccccc21 | 78.1
Cc1cccc(-[n+]2c(-c3cccc(Br)c3)[nH]c3nc4ccccc4nc32)c1 | 18.1
CCNC(=O)C1(C)CCCN1C(=O)c1ccc(N(C)C)cc1 (configuration not stated) | -7.5
CCCCCN(C(=O)NC(=O)Nc1cccc(C)c1C)S(C)(=O)=O | -2.15
O=C(O)CCC(=O)Nc1ccc(OCC2CCCO2)cc1 (configuration not stated) | 4.7
CN(Cc1cccs1)C(=O)CN1C(=O)c2ccccc2S1(=O)=O | -22.1
C/C=C(/C)C(=O)O[C@@H]1c2cc3c(c4c2[C@@]2(CO4)C(=O)C(OC)=C(OC)C=C2C[C@@H](C)[C@H]1C)OCO3 | -4.38
Cc1ccc(C)c(S(=O)(=O)N2CC(=O)Nc3ccccc32)c1 | 22.6
Cc1cccc(N2C(=O)SC(SC(=Nc3ccccc3)Nc3ccccc3)C2=O)c1 (configuration not stated) | -7.91
CN(C)S(=O)(=O)c1ccc(Oc2ccc(S(=O)(=O)N(C)C)cc2)cc1 | 25.9
O=C(Cc1ccc(S(=O)(=O)N2CCOCC2)s1)Nc1ccc(Br)c(C(F)(F)F)c1 | 4.75

* * *

# Assayed System: Nuclear receptor coactivator 3 (Homo sapiens) (UniProt Q9Y6Q9)
# Experiment Notes: SRC3 coactivator transcriptional activity inhibitors, primary screen, cell-based, luminescence (AID 588352);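 also: 0% = DMSO-treated cells and 100% = gossypol-treated cells at 36 µM; higher means less SRC3-driven luciferase light from the GAL4 reporter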
# Assay Context: HEK293 GAL4-SRC3 luciferase reporter, at 3.6 µM, hits give high values
About 620 (0.17%) of roughly 360,000 compounds were called active. For the sample, actives were picked, then their nearest neighbours and some compounds at random.
Reported inhibition is given for each of the following compounds.
Quantity Kind: inhibition (%)

Structure Smiles String | Assayed System | Units Text | Measured Value
COC(=O)CN1C(=O)[C@H]2[C@@H](C3CC3)N3C(=O)CN(Cc4ccc(-c5ccccc5)cc4)C(=O)[C@@]3(Cc3ccccc3)[C@H]2C1=O | Nuclear receptor coactivator 3 (Homo sapiens) (UniProt Q9Y6Q9) | % | 9.14
COc1ccc(C(=O)N/N=C2\CCS(=O)(=O)c3ccc(F)cc32)cc1OC | Nuclear receptor coactivator 3 (Homo sapiens) (UniProt Q9Y6Q9) | % | 5.88
Cc1c(CN2CCC(CO)(CCOc3ccccc3)CC2)[nH]c2ccc(Cl)cc12 | Nuclear receptor coactivator 3 (Homo sapiens) (UniProt Q9Y6Q9) | % | -36.5
CC(C)OC(=O)c1ccc(NCc2cc(O)ccc2O)cc1Cl | Nuclear receptor coactivator 3 (Homo sapiens) (UniProt Q9Y6Q9) | % | -31.6
Cc1nn(CC(=O)NC2CCCCC2)c(=O)c2cccn12 | Nuclear receptor coactivator 3 (Homo sapiens) (UniProt Q9Y6Q9) | % | -10.9

* * *

# Assayed System: Nuclear receptor coactivator 3 (Homo sapiens)
# Experiment Notes: SRC3 coactivator transcriptional activity inhibitors, primary screen, cell-based, luminescence (AID 588352);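 also: 0% = DMSO-treated cells and 100% = gossypol-treated cells at 36 µM; higher means less SRC3-driven luciferase light from the GAL4 reporter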
# Assay Context: HEK293 GAL4-SRC3 luciferase reporter, at 3.6 µM, hits give high values
Among all 360,000 compounds or so, about 620 (0.17%) were called active. The full list was thinned out, with actives kept by preference.
Reported values of inhibition for individual entries
Quantity Kind: inhibition (%)

Compound | Measured Value
CSCCC(=O)N1CCCC(CNC(=O)c2ccccc2Cl)C1 (centres undefined) | 13.3
Cn1c(CC(=O)Nc2ccc(F)cc2)nnc1SCC(=O)NC1CCCCC1 | -3.83
CCCN(CCC)S(=O)(=O)c1ccc(C(=O)N2CC3CCC(CC3)C2)cc1 | 21.3
Cc1cc(=O)oc2c(C(=O)c3ccccc3)c(OCC(N)=O)ccc12 | 14.2
CC/C(C)=N/Nc1nc2sc3c(c2c(=O)[nH]1)CC(C)(C)OC3 | -4.5
COc1ccc(S(=O)(=O)NCC(=O)NC2CC2)cc1OC | -59
O=C(NCCCCCCCCCNC(=O)C(F)(F)F)C(F)(F)F | -9.12
CC1(C)CC(N2CCN(C(c3ccccc3)c3ccccc3)CC2)=CC(=[N+]2CCCCC2)C1 | 80
CC1(C(=O)O)CCCN(C(=O)/C=C/c2ccccc2)C1 (centres undefined) | -1.88
Cc1ccc(OC(=O)c2ccccc2C(=O)OCC(F)(F)C(F)F)cc1 | 12
C=CCn1c(C)cc(C2=NNC(=NCC)SC2)c1C | 86
CCCCn1c(N)c(N(CCC(C)C)C(=O)CC2OC(=O)c3ccccc32)c(=O)[nH]c1=O (centres undefined) | 12.2
Cc1ccsc1C(=O)OCC(=O)Nc1cccc(F)c1 | -16.2
O=S(=O)(c1cccc(-c2cn3ccccc3n2)c1)N1CCCC1 | 11.7
COCc1cc(=O)n2[nH]c(C)c(-c3ccccc3)c2n1 | 3.15
CNS(=O)(=O)c1ccc(N2CCCC2=O)c([N+](=O)[O-])c1 | 0.16
Cc1cc(=O)oc2cc(OCC3CC(c4ccccc4Cl)=NO3)ccc12 (centres undefined) | -29.1
O=S(=O)(Nc1n[nH]c(C(F)(F)F)n1)c1ccccc1 | 6.01
CC1CCCCC1NC(=O)c1cc(=O)[nH]c2ccccc12 (centres undefined) | 9.65
Cc1cc(C)nc(SCc2nnc(SCC(=O)OC3CCCCC3)o2)n1 | -10.7
Cc1[nH]c(=O)c(C(=O)/C=C/c2ccccc2)c2c1CCCC2 | 64.9
COc1ccc(F)cc1C(=O)C1CCCN(C(=O)CCc2ccccn2)C1 (centres undefined) | 14.9
CCc1c(O)nc(SCC(=O)Nc2ccccc2)n(C(C)CC)c1=O (centres undefined) | -6.38
COc1ccc(CNC(=O)COC(=O)C2=Cc3ccccc3OC2)cc1 | -19.6
O=C(N/N=C/c1cccc([N+](=O)[O-])c1)C1CC(=O)N(c2ccc(Br)cc2)C1 (centres undefined) | -0.6
O=c1[nH]n2c(=O)c3c([nH]c2c1N=Nc1ccccc1)CCC3 | -2.3
CN(c1ccc2nc3ccccc3c(=O)n2n1)C1CCCCC1 | 73.1
COC(=O)/C(=C1\Oc2ccc(C(C)(C)C)cc2S1)C(F)(F)F | 5.95
O=C(O)C1CCN(C(=O)c2cc(F)cc3c2OCOC3)CC1 | 1.17
CSc1cc(C)n(-c2ccccc2C)c(=S)c1C(C)=O | -24.7
Cc1cc(C)c(C2C3=C(Nc4c2c(C)nn4-c2ccccn2)c2ccccc2C3=O)c(C)c1 (centres undefined) | 9.07
COc1ccccc1NS(=O)(=O)c1ccc(C)c(C(=O)NNC(=O)c2csc(N3CCOCC3)n2)c1 | -18.4
CCCNC(=O)C1(C)CCCN(C(=O)c2cccc(OC(C)=O)c2C)C1 (centres undefined) | -10.9
COc1ccccc1Cn1c(C)nnc1-c1cnn(C)c1N | 19.6
FC(F)(F)c1cccc(-c2nc(COc3ccc(Cl)cc3Cl)no2)c1 | 12.2
CC(C)[C@H](NC(=O)N1CC(=O)Nc2ccccc21)C(=O)N[C@@H](Cc1c[nH]c2ccccc12)C(=O)O | 11.1
COc1ccc(N(C(=O)c2snc(C(N)=O)c2N)C(C(=O)NC2CCCC2)c2ccco2)cc1OC (centres undefined) | -3.31
O=C(CN1CCN(c2ncccn2)CC1)Nc1ccccc1C(F)(F)F | 17.7
Cc1noc(C)c1C(=O)N1CCC1(C)C(=O)NS(=O)(=O)c1ccc(C#N)cc1 (centres undefined) | -19.1
CC1(C(=O)NS(=O)(=O)c2ccc(C#N)cc2)CCN1C(=O)c1ccc(C2CCCCC2)cc1 (centres undefined) | 8.43
Cc1ccc(C(c2sc3nc(C)nn3c2O)N2CCN(c3ccccc3)CC2)cc1 (centres undefined) | -21.5
Cc1ccc(S(=O)(=O)NCC(=O)N(CC(=O)NC2CCCCC2)Cc2ccco2)cc1 | 12.3
O=C(N/N=C/c1ccccc1O)/C(=C/c1ccccc1)CCO | 43.6
Cc1ccc(Cn2c(C)c3cnn(CC(=O)NCCN4CCOCC4)c(=O)c3c2C)cc1 | -3.71
